- System: SARS-CoV-2
- assay notes: Cytopathic effect (CPE) suppression effect confirmation test using HEK293T/ACE2-TMPRSS2 cells
- Type: cell-based
- condition label: Severe acute respiratory syndrome coronavirus 2, HEK-293T, 72 h, read-out: EC50 (50% SARS-CoV-2 infected cell death inhibitory concentration), class, HEK293T/ACE2-TMPRSS2 cells, CPE suppression, CellTiter-Glo 2.0 after 3 days culture
# Lookup of reported EC50 keyed by entry
recorded endpoint: EC50

>>> result("N#CCn1c(N2CC3(CCOC3)C2)c(Cc2cc(F)c(F)c(F)c2)c(=O)n(-c2nsc3ccccc23)c1=O [Compound I-143]")
"1000 to 5000 nM"
>>> result("Cc1cncc(-n2c(=O)c(-c3ccc(F)c(Cl)c3)c(-c3ccc(C4CC4)cc3)n(CC#N)c2=O)c1 [Compound I-071]")
"< 100 nM"
>>> result("Cc1cncc(-n2c(=O)c(Cc3cc(F)c(F)c(F)c3)c(-c3ccc(C(F)(F)F)c(Cl)c3)n(CC#N)c2=O)c1 [Compound I-031]")
"< 100 nM"
>>> result("COC1CCN(c2c(Cc3cc(F)c(F)c(F)c3)c(=O)n(-c3cncc(C)c3)c(=O)n2CC#N)C1 (racemic) [Compound I-102]")
"< 100 nM"
>>> result("CCCOc1cc(Cl)cc(-c2c(N3Cc4ccccc4C3)n(CC#N)c(=O)n(-c3cncc(C)c3)c2=O)c1 [Compound I-041]")
"< 100 nM"
>>> result("N#CCn1c(N2CC3(CCOC3)C2)c(-c2ccc(F)c(Cl)c2)c(=O)n(-c2cnc3cc(Cl)ccn23)c1=O [Compound I-131]")
"< 100 nM"
>>> result("Cc1cnnc(-n2c(=O)c(Cc3cc(F)c(F)c(F)c3)c(N3C[C@H]4C[C@@H](C3)O4)n(CC#N)c2=O)c1 [Compound I-035]")
"100 to 1000 nM"
>>> result("N#CCn1c(N2CCC(O)(C(F)(F)F)CC2)c(-c2ccc(F)c(Cl)c2)c(=O)n(-c2cncc(Cl)c2)c1=O [Compound I-087]")
"< 100 nM"
>>> result("N#CCn1c(N2CC(N3CCOCC3)C2)c(-c2ccc(F)c(Cl)c2)c(=O)n(-c2cncc(Cl)c2)c1=O [Compound I-085]")
"< 100 nM"
>>> result("Cc1cncc(-n2c(=O)c(-c3ccc(F)c(Cl)c3)c(N3CCC4(CCNC4=O)CC3)n(CC#N)c2=O)c1 [Compound I-044]")
"100 to 1000 nM"
>>> result("CC1(C)CCN(c2c(-c3ccc(F)c(Cl)c3)c(=O)n(-c3cc4n(c(=O)c3)CCC4)c(=O)n2CC#N)CC1 [Compound I-166]")
"1000 to 5000 nM"
>>> result("Cc1cncc(-n2c(=O)c(Cc3cc(F)c(F)c(F)c3)c(N3CCC(C)(O)CC3)n(CC#N)c2=O)c1 [Compound I-109]")
"< 100 nM"
>>> result("Cc1cncc(-n2c(=O)c(Cc3cc(F)c(F)c(F)c3)c(-c3ccc(C)c(C)c3)n(C(F)C#N)c2=O)c1 (racemic) [Compound I-048]")
"1000 to 5000 nM"
>>> result("Cc1cncc(-n2c(=O)c(Cc3cc(F)c(F)c(F)c3)c(N3Cc4cn[nH]c4C3)n(CC#N)c2=O)c1 [Compound I-204]")
"< 100 nM"

* * *

- assay target: Recombinant SARS-CoV-2 3CL Protease (Severe acute respiratory syndrome coronavirus 2 (2019-nCoV) (SARS-CoV-2), UniProt P0DTD1)
- assay notes: biochemical
- Format: biochemical
- condition label: 50% SARS-CoV-2 3CL protease inhibitory concentration; read-out: IC50
# IC50 per record follows
recorded endpoint: IC50

>>> result("N#CCn1c(N2CC(C(F)F)C2)c(-c2ccc(F)c(Cl)c2)c(=O)n(-c2cncc(C#N)c2)c1=O")
"< 10 nM"
>>> result("COc1cnnc(-n2c(=O)c(-c3ccc(F)c(Cl)c3)c(N3CC4(C3)CC(F)(F)C4)n(CC#N)c2=O)c1")
"< 10 nM"
>>> result("N#CCn1c(N2CCC(F)(C#N)CC2)c(-c2ccc(F)c(Cl)c2)c(=O)n(-c2cncc(Cl)c2)c1=O")
"< 10 nM"
>>> result("Cc1c(-c2ccc(F)c(Cl)c2)c(=O)n(-c2cncc(Cl)c2)c(=O)n1CC(=O)CO")
"> 100 nM"
>>> result("COc1ccc(-c2c(-c3ccc(F)c(Cl)c3)c(=O)n(-c3cncc(C)c3)c(=O)n2CC#N)cc1")
"< 10 nM"
>>> result("Cc1cncc(-n2c(=O)c(Cc3cc(F)c(F)c(F)c3)c(N3C[C@H]4CN(C)C[C@H]4C3)n(CC#N)c2=O)c1")
"< 10 nM"
>>> result("N#CCn1c(N2CC3(CCOC3)C2)c(-c2ccccc2)c(=O)n(-c2cncc(Cl)c2)c1=O")
"< 10 nM"
>>> result("N#CCn1c(N2CC3(CCOC3)C2)c(Cc2cc(F)c(F)c(F)c2)c(=O)n(-c2cnc3ccc(F)cn23)c1=O")
"10 to 100 nM"
>>> result("CN1CCN(c2c(-c3ccc(F)c(Cl)c3)c(=O)n(-c3cncc(Cl)c3)c(=O)n2CC#N)CC1=O")
"< 10 nM"
>>> result("C#CCn1c(C)c(-c2ccc(F)c(Cl)c2)c(=O)n(-c2cncc(Cl)c2)c1=O")
"< 10 nM"
>>> result("CC(=O)Nc1cccc(-c2c(N3CCC(F)(F)CC3)n(CC#N)c(=O)n(-c3cncc(Cl)c3)c2=O)c1")
"> 100 nM"
>>> result("N#CCn1c(N2CC(CO)C2)c(-c2ccc(F)c(Cl)c2)c(=O)n(-c2cncc(OCF)n2)c1=O")
"< 10 nM"
>>> result("N#CCn1c(N2CCC(C(F)F)CC2)c(-c2ccc(F)c(Cl)c2)c(=O)n(-c2cncc(OCF)n2)c1=O")
"< 10 nM"
>>> result("N#CCn1c(CCC(F)(F)F)c(-c2ccc(F)c(Cl)c2)c(=O)n(-c2cncc(Cl)c2)c1=O")
"< 10 nM"
>>> result("Cc1cncc(-n2c(=O)c(-c3cccc4ccccc34)c(N3Cc4cn[nH]c4C3)n(CC#N)c2=O)c1")
"< 10 nM"
>>> result("N#CCn1c(N2CCC(O)(C(F)(F)F)CC2)c(-c2ccc(F)c(Cl)c2)c(=O)n(-c2cncc(Cl)c2)c1=O")
"< 10 nM"
>>> result("Cc1cc(-n2c(=O)c(-c3ccc(F)c(Cl)c3)c(-c3cc4ccccc4s3)n(CC#N)c2=O)cc(=O)[nH]1")
"< 10 nM"
>>> result("C[C@@](O)(CCc1c(-c2ccc(F)c(Cl)c2)c(=O)n(-c2cncc(Cl)c2)c(=O)n1CC#N)C(F)F (single isomer, unassigned)")
"< 10 nM"
>>> result("N#CCn1c(N2Cc3cn[nH]c3C2)c(Cc2cc(F)c(F)c(F)c2)c(=O)n(-c2cc[nH]c(=O)c2)c1=O")
"32 nM"
>>> result("N#CCn1c(N2CC(c3ncccn3)C2)c(-c2ccc(F)c(Cl)c2)c(=O)n(-c2cncc(Cl)c2)c1=O")
"< 10 nM"
>>> result("Cc1cncc(-n2c(=O)c(Cc3cc(F)c(F)c(F)c3)c(N3CCC4(CCC(=O)N4)C3)n(CC#N)c2=O)c1 (racemic)")
"10 to 100 nM"
>>> result("N#CCn1c(-c2ccc(F)nc2)c(-c2ccc(F)c(Cl)c2)c(=O)n(-c2cncc(Cl)c2)c1=O")
"< 10 nM"
>>> result("Cc1cncc(-n2c(=O)c(Cc3cc(F)c(F)c(F)c3)c(N3CCC4(CCOCC4)C3)n(CC#N)c2=O)c1")
"< 10 nM"
>>> result("Cc1cc(-n2c(=O)c(-c3cc(Cl)cc(C(F)(F)F)c3)c(N3CC4(C3)CC(F)(F)C4)n(CC#N)c2=O)cc(=O)[nH]1")
"< 10 nM"
>>> result("N#CCn1c(-c2ccc(CO)nc2)c(-c2ccc(F)c(Cl)c2)c(=O)n(-c2cncc(Cl)c2)c1=O")
"< 10 nM"
>>> result("N#CCn1c(N2CC(C(F)(F)F)C2)c(-c2ccc(F)c(C(F)F)c2)c(=O)n(-c2cncc(Cl)c2)c1=O")
"< 10 nM"
>>> result("N#CCn1c(C2CC(O)C2)c(-c2ccc(F)c(Cl)c2)c(=O)n(-c2cncc(Cl)c2)c1=O (stereo not drawn)")
"< 10 nM"

* * *

Catalogue of molecules with associated IC50
- assay target: Recombinant SARS-CoV-2 3CL Protease (Severe acute respiratory syndrome coronavirus 2 (2019-nCoV) (SARS-CoV-2), UniProt P0DTD1)
- assay notes: biochemical
- Type: biochemical
- condition label: 50% SARS-CoV-2 3CL protease inhibitory concentration; read-out: IC50
recorded endpoint: IC50

>>> result("Cc1cncc(-n2c(=O)c(Cc3cc(F)c(F)c(F)c3)c(N3CCC(C#N)C3)n(CC#N)c2=O)c1 (racemic) [Compound I-092]")
"0.01 to 0.1 µM"
>>> result("N#CCn1c(N2CC(O)(c3ncccn3)C2)c(-c2ccc(F)c(Cl)c2)c(=O)n(-c2cncc(Cl)c2)c1=O [Compound I-232]")
"0.00086 µM"
>>> result("N#CCn1c(N2CC(O)(C(F)F)C2)c(-c2ccc(F)c(Cl)c2)c(=O)n(-c2cncc(OCF)n2)c1=O [Compound I-411]")
"< 0.01 µM"
>>> result("Cc1cc(-c2c(N3CCC(F)(F)CC3)n(CC#N)c(=O)n(-c3cncc(Cl)c3)c2=O)cs1 [Compound I-328]")
"0.01 to 0.1 µM"
>>> result("N#CCn1c(N2CC(O)(C(F)(F)F)C2)c(-c2ccc(F)c(C#N)c2)c(=O)n(-c2cncc(Cl)c2)c1=O [Compound I-373]")
"< 0.01 µM"
>>> result("Cc1cncc(-n2c(=O)c(Cc3cc(F)c(F)c(F)c3)c(OC(C(F)(F)F)C(F)(F)F)n(CC#N)c2=O)c1 [Compound I-004]")
"> 0.1 µM"
>>> result("N#CCn1c(N2CC(O)(C(F)(F)F)C2)c(-c2ccc(F)c(Cl)c2)c(=O)n(-c2cncc(C(F)F)n2)c1=O [Compound I-383]")
"< 0.01 µM"
